A collection of molecules and their measured melting point

Please review the following examples before continuing.
* CCN(CC)CC(C)COc1ccc2nc(-c3cccc(OC)c3)n(CC(=O)NC(C)C)c(=O)c2c1 (stereo not given) | 161 to 163 °C
* Cc1c(NC(=O)CC(C)(C)C)cc2c(c1C)OC(C)(C)C2O (stereo not given) | 184 to 185 °C

Input: # query: melting point of entry Cc1nc2ccccn2c1-c1csc(Nc2cccc(C(=O)Nc3ccccc3N)c2)n1
Output: 195 to 197 °C

Input: Quick check: melting point of Cc1cc(C(N)=O)ncc1C(c1c(F)ccc(F)c1F)S(=O)(=O)CC1CC1 (stereo not given) ?
Output: 222 to 223 °C

---

// reported melting point for each item listed

• CCOC(=O)c1cnc(Oc2ccccc2)s1 = 67 °C
• O=C(NCC1CC1)c1c(NC(=O)c2cc(C(F)(F)F)nn2-c2ncccc2Cl)ccc2cn[nH]c12 = 240 to 242 °C
• Cc1ccc(-c2cc([Si](C)(C)C)oc2-c2ccc(Cl)cc2)cc1 = 80 to 84 °C

Input: I'd like to know its melting point. The molecule in question is CCn1nc2oc(C=CC(N)=O)c(C)c2c1C
Output: 258 to 260 °C

Input: Using the record for CC(C)(C(=O)c1ccc(OCC(=O)O)cc1)N1CCN(c2ccncc2)CC1 , report its melting point.
Output: 278 to 279 °C

Input: Quick check: melting point of CCOC(=O)c1c(-c2ccccc2)c2c3ccccc3cnn2c1C(C)C ?
Output: 141 to 142 °C

Input: Any idea what melting point was measured for CC(C)Nc1c(-c2ccc(S(C)(=O)=O)cc2)cnn(CC(F)(F)F)c1=O ?
Output: 173 to 174 °C

Input: What does the data say about its melting point? Entry: Cn1c(COc2ccc(CC3SC(=O)N(C(c4ccccc4)(c4ccccc4)c4ccccc4)C3=O)cc2)nc2cncnc21 (centres undefined)
Output: 55 to 65 °C

---

property-measured: melting point

These solved cases illustrate the format of a correct answer.
- CCCc1cc(C(=O)OC)ccc1OCC(=O)CNc1cnn(C(C)C)c(=O)c1Cl: 133 °C
- O=C1Nc2c(O)cccc2C(=O)N2CCCC12 (stereo unspecified): 280 to 282 °C
- CN1C2CCC1CC(NC(=O)OC(C)(C)C)C2 (stereo unspecified): 79 to 81 °C
- COc1cccc(NC(=O)NCC(=O)N(c2ccccc2)c2ccccc2)c1: 182 °C
- CCCCCCCCCCCCS(=O)(=O)c1c(O)cc(C)oc1=O: 78 to 79 °C

Moving on to another molecule below.
Input: Recorded melting point for O=[N+]([O-])C1(Cl)C=CC(S(=O)c2ccc(Br)cc2)=CC1 (stereo unspecified) , please?
Output: 138 to 140 °C

---

property-measured: melting point

Example cases with answers are listed next.
* Cc1ccc2c(c1)C1=NNC(=O)CC1CS2 (stereo unspecified) | 217 to 219 °C
* C=CCN1CCN(c2cc3c(cc2Cl)c(=O)c(C(=O)O)cn3CC)CC1 | 212 °C
* CC(=O)Oc1ccccc1C(=O)Oc1nc[nH]c1C(N)=O | 143 to 145 °C
* COc1nc(NC(=O)NS(=O)(=O)c2ccccc2Cl)nc2nccnc12 | 212 °C

Input: Item Nc1ncnc2c1ccn2C1C=CC(CO)C1 (stereo unspecified) has what recorded melting point?
Output: 165 to 168 °C

Input: Quick check: melting point of CN(C)Cc1ccc([C@H]2CC[C@H](OC(=O)c3ccc(Cl)cc3)CC2)cc1 ?
Output: 94 to 95 °C

Input: Look up melting point: CCOc1nn(-c2ccc(C(F)(F)F)cn2)cc1CCCOc1cc(OC)ccc1CC(=O)O
Output: 147 to 148 °C

Input: Recorded melting point of CC(C)(C)CC(=O)Nc1cc(NC(=O)C(C)(C)C)cc(NC(=O)C(C)(C)C)c1 , please.
Output: 368 °C

Input: // lookup melting point for CN(C)S(=O)(=O)NC(c1ccccc1)P(=O)(Oc1ccccc1)Oc1ccccc1 (stereo unspecified)
Output: 193 to 196 °C

Input: Query (compound): Cc1cc(CCc2c(Br)c(C)c(O)c(C)c2Br)c(Br)c(C)c1O ; field requested: melting point
Output: 249 to 255 °C

---

Below: a set of entries, each annotated with reported melting point.

// solved cases for melting point follow
- O=C(CN1CCCC1)Nc1ccc2c(c1)C(=O)c1cc(NC(=O)CN3CCCC3)ccc1C2=O: 201 °C
- COc1cc2c(c3c1OC(C)(C)C3)C(c1cccc(NC(=O)Cc3ccncc3)c1)=NC(C)(C)C2: 124 to 128 °C
- COCOc1ccc(-c2ncc3ccc(-c4csc(CN5CCCCC5)c4)nc3n2)cc1: > 268 °C
- CCOC(=O)CC(=O)c1cc(C#N)ccc1F: 55 to 60 °C
- OCc1ccc(-c2ccc(OC(F)(F)F)cc2)nc1: 57 to 58 °C
- O=C1CCCCCCCCC=CCCCCCCCCC1O (stereo not given): 66 to 67 °C
- OC1CCc2cc(F)cc(F)c21 (stereo not given): 102 to 103 °C
- CCn1c2ccccc2c2cc(-n3c(CC(=O)O)c(C(=O)O)c4cc(Oc5ccc(C(F)(F)F)cc5)ccc43)ccc21: 243 to 245 °C

Input: # query: melting point of entry CN(C)C=C1C(=O)N(c2cccc(Cl)c2)c2ccccc21
Output: 116 to 118 °C

Input: Would you kindly share the measured melting point for O=C(Nc1ccc(Sc2c(O)c3c(Cl)cc(Cl)cc3[nH]c2=O)cc1)c1cccnc1 ?
Output: > 300 °C

Input: Fill in: melting point of O=C1N(CC2CCOCC2)c2ccccc2C12COc1cc3c(cc12)OCCO3 (stereo not given) is ___
Output: 129 to 131 °C

Input: Please look up its melting point: OCc1ccc2c(ccc3c4ccccc4ccc23)c1
Output: 261 to 262 °C

Input: Please look up its melting point: CCOC(=O)c1cn(CC)c2nc(N3CCNCC3)ncc2c1=O
Output: 155 °C

Input: Recorded melting point of O=C(CNC(=O)c1ccc([N+](=O)[O-])c(F)c1)OCC(Cl)(Cl)Cl , please.
Output: 142 to 144 °C

Input: Given the entry COc1cc(Br)cc(/C=C/C(=O)/C=C/c2cc(Br)cc(OC)c2)c1 , report its measured melting point.
Output: 181 to 183 °C

Input: Please give the measured melting point for this compound: Cc1cccc(Br)c1C(=O)N[C@@H](Cc1ccc(-c2c(C)n(C)c(=O)n(C)c2=O)cc1)C(=O)O
Output: 240 to 242 °C

---

property-measured: melting point

Worked set:
* O=C1CCN(Cc2ccccc2OC(F)(F)F)CC1C(c1ccc(F)cc1)c1ccc(F)cc1 (stereo not given) | 88 to 89 °C
* Cc1nc(C)c(C(=O)NC(C)c2ccccc2)cc1CCl (stereo not given) | 165 °C
* CC(C)C1(C)N=C2c3nc4occc4cc3C(=O)N2C1=O (stereo not given) | 193 to 205 °C
* O=C(O)Cc1c[nH]c2cc(C(F)(F)F)nn2c1=O | 320 to 324 °C

Note: attention shifts to another entry.
Input: Need melting point, item COc1c(O)c(C(C)=O)c(OC)c2c1OCC2
Output: 100 to 101 °C

---

Reported melting point values are given for each entry in this list.

Use the examples below as a reference point.
- CCCOc1ccc(S(=O)(=O)N(C)C)cc1-c1ccc(C#N)c(=O)[nH]1: 225 to 226 °C
- COC(=O)c1ccccc1COc1ccccc1Br: 73 to 74 °C

Input: Form field: reported melting point of COc1ccc(C(=O)Nc2c(C)c(C)c3c(c2C)C(c2ccc(C(C)C)cc2)C(C)(C)O3)cc1 (centres undefined)
Output: 202 to 205 °C

Input: Quick one: melting point of O=[N+]([O-])c1ccc(Nc2ccccc2)s1 ?
Output: 186 °C

Input: Sample CN1C(=O)C(NC(=O)Nc2ccc(Cl)c(Cl)c2)N=C(c2ccccc2)c2ccccc21 (centres undefined) — what was its melting point?
Output: 274 to 276 °C

Input: Please look up its melting point: CC(C)(C)OC(=O)N1CCC(COc2ccc(C=O)cc2)CC1
Output: 116 to 117 °C

Input: Sample Fc1ccc(Cl)c(-c2c(Cl)nc3ncnn3c2Cl)c1 — what was its melting point?
Output: 137 °C

Input: Return reported melting point; argument: COc1cc(N(C)C)nc(NC(=O)NS(=O)(=O)c2ccccc2Cl)n1
Output: 224 to 226 °C

---

Entries and their measured melting point follow.

A selection of reference data follows.
* Cc1ccc(C=C2C3=C(C=CC2(C)C)CC(C)CN3)cc1 (stereo not given) | 153 °C
* COc1ccc(C(=NOCc2ccc(OCc3nc(-c4ccccc4)oc3C)cc2)C(=O)O)cc1 | 183 to 184 °C
* O=CN(O)C(CCO)CS(=O)(=O)c1ccccc1Oc1ccc(OC(F)(F)F)cc1 (stereo not given) | 120 to 123 °C
* CCOC(=O)c1c(C)cc2c(c1C)c(=O)n(-c1ccccc1Cl)c(=O)n2CC(N)=O | 285 to 287 °C
* N#CC1=C(C#N)N=CCC=N1 | 189 to 190 °C

Input: Returns the measured melting point for the input compound. Input: CCOC(=O)C1=NCC(C)(C)c2cc(OC)c3c(c21)CC(C)(C)O3
Output: 117 to 121 °C

Input: Need melting point, item CC(C)n1nc(-c2sc(C(=O)N3CCCC3)nc2-c2ccccc2)ccc1=O
Output: 169 to 170 °C

Input: Sample CCCc1nc(C)n2nc(S(=O)(=O)Cl)nc2c1Cc1ccc(-c2ccccc2C#N)cc1 — what was its melting point?
Output: 141 °C

Input: I am curious: what melting point value has been reported for CCCCCCCOc1ccc(C(=O)O)c(F)c1F ?
Output: 105 °C
